This listing pairs binders with measured EC50 (CD25+) pSTAT5, murine T (CTLL-2, CD25+) cells.
# TARGET UNDER TEST: T1, mouse IL-2Rβγc on murine cells (CTLL-2 T cells, primary CD4+ T cells) (mouse, UniProt P16297 27-539; P34902 23-369)
# T1 sequence (looked up) 1: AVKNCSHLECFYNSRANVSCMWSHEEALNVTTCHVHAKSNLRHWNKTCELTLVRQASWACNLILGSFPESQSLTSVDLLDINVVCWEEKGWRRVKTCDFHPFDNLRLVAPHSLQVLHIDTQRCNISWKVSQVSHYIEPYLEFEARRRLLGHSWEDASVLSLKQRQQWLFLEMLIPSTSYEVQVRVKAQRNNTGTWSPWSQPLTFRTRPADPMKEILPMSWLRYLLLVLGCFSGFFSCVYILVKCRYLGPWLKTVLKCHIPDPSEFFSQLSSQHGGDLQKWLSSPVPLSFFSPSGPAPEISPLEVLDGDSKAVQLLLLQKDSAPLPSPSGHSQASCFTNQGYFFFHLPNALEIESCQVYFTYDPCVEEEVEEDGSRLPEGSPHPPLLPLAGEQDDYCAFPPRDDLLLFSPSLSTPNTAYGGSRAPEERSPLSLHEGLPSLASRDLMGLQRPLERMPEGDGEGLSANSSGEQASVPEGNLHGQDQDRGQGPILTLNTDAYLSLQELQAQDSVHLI
# T1 sequence (looked up) 2: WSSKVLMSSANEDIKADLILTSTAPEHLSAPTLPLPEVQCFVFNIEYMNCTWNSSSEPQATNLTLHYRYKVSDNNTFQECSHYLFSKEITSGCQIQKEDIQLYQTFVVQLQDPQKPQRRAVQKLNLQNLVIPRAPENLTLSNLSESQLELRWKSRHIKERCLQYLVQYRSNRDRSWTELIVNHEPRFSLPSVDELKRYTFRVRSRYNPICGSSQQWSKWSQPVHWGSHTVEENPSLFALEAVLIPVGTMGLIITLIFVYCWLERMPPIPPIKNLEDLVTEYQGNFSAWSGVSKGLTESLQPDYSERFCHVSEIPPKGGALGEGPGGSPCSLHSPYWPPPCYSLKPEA
# TEST DETAILS: cell-based or functional assay
ASSAY ENDPOINT: EC50 (CD25+) pSTAT5, murine T (CTLL-2, CD25+) cells (nM)

1. G2_neo2_40_1F_seq12 (designed binder) TEKKLQLLVEHALLDALMILNLWSESNEKLNRIITTMQSWIFTGRIDPDKAEELAKLVEELREEARERGIDTEDYVSNLKVILKELS: 1.74
2. G2_neo2_40_1F_seq27 (designed binder) TKKKAQLLAEHALLDALMLLNLSSESNERLNRIITWLQSIIFTGTYDPDMVKEAVKLADEIEDEMRKRGIDTEDYVSNLRVILQELA: 0.24
